# Test system: HepG2
# assayProcedure: Cytotoxicity against human HepG2 cells assessed as reduction in cell viability after 72 hrs by MTT assay
# Format: cell-based
# condition: hepg2, 72 h
Attribute: Activity
quantityKind: Activity (µg/mL)

{"recordSmiles": "CC(C)=CCOc1cccc(NC(=O)Nc2cccc(C#N)c2)c1", "obsValue": 172.6}
{"recordSmiles": "CCCCOc1ccc(NC(=O)Nc2cccc(C#N)c2)cc1", "obsValue": 206.7}
{"recordSmiles": "C=CCOc1ccc(NC(=O)Nc2cccc(C#N)c2)cc1", "obsValue": 103.5}
{"recordSmiles": "CCCCOc1cccc(NC(=O)Nc2ccccc2C)c1", "obsValue": 175.1}
{"recordSmiles": "CC(C)=CCOc1ccc(NC(=O)Nc2cccc(C#N)c2)cc1", "obsValue": 186.4}
{"recordSmiles": "C=CCOc1cccc(NC(=O)Nc2cccc([N+](=O)[O-])c2)c1", "obsValue": 105.6}
{"recordSmiles": "CC(C)=CCOc1cccc(NC(=O)Nc2cccc([N+](=O)[O-])c2)c1", "obsValue": 113.7}
{"recordSmiles": "CC(C)=CCOc1cccc(NC(=O)Nc2ccccc2[N+](=O)[O-])c1", "obsValue": 61.4}
{"recordSmiles": "CCCCOc1ccc(NC(=O)Nc2ccccc2C)cc1", "obsValue": 130.5}
{"recordSmiles": "CC(C)=CCOc1ccc(NC(=O)Nc2cccc([N+](=O)[O-])c2)cc1", "obsValue": 142.6}
{"recordSmiles": "CC(C)=CCOc1cccc(NC(=O)Nc2ccccc2Cl)c1", "obsValue": 128.2}
